Target: sPHEX (Homo sapiens, UniProt P78562)
Sequence (P78562 53-749 limits assumed): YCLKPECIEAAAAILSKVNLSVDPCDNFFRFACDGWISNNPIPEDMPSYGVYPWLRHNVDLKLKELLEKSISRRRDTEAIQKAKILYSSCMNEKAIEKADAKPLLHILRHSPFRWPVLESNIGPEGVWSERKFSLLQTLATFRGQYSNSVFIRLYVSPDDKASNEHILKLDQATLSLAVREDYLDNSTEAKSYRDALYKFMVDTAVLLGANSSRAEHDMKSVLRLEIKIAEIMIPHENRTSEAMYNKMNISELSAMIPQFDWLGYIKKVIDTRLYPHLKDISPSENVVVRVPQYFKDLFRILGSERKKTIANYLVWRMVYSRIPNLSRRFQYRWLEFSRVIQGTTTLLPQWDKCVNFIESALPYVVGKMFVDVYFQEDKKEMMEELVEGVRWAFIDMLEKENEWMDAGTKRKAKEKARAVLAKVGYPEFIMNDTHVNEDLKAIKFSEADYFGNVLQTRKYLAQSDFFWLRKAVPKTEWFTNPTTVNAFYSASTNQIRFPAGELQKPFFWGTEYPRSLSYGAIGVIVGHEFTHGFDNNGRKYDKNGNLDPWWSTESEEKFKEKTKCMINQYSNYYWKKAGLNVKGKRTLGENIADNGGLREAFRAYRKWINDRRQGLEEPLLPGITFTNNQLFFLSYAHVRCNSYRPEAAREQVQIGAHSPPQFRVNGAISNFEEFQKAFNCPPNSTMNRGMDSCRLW
observed_property: IC50 (nM)

Past entries and their recorded results:
# compound, reading
records = [
    ("O=C(O)C[C@H](NC(=O)[C@@H](S)Cc1ccccc1)C(=O)N[C@@H](Cc1c[nH]c2ccccc12)C(=O)O [Example 89]", 11),
    ("O=C(O)C[C@H](NC(=O)[C@@H](S)Cc1ccccc1)C(=O)N[C@@H](CO)C(=O)O [Example 107]", 170),
    ("O=C(O)CC(CC(=O)NO)C(=O)NCCc1ccc(-c2ccc(O)cc2)cc1 (centres unmarked) [Example 140]", 360),
    ("O=C(O)C[C@H](NC(=O)[C@@H](S)Cc1ccccc1)C(=O)N[C@@H](Cc1c[nH]c2ccccc12)C(=O)N[C@@H](CO)C(=O)O [Example 116]", 4),
    ("O=C(O)CC[C@H](NC(=O)[C@@H](S)Cc1ccccc1)C(=O)N[C@@H](Cc1c[nH]c2ccccc12)C(=O)O [Example 114]", 320),
    ("CCCC[C@H](S)C(=O)N[C@@H](CC(=O)O)C(=O)N[C@@H](Cc1c[nH]c2ccccc12)C(=O)O [Example 95]", 7),
    ("O=C(O)C[C@H](NC(=O)[C@@H](S)Cc1ccccc1)C(=O)N[C@@H](Cc1ccc(O)cc1)C(=O)O [Example 108]", 7),
    ("C[C@H](S)C(=O)N[C@@H](CC(=O)O)C(=O)N[C@@H](Cc1c[nH]c2ccccc12)C(=O)O [Example 90]", 68),
]

1 = O=C(O)C[C@H](NC(=O)[C@@H](S)Cc1ccc(OCc2ccccc2)cc1)C(=O)N[C@@H](Cc1c[nH]c2ccccc12)C(=O)O [Example 99]
2 = COc1ccc(C[C@H](S)C(=O)N[C@@H](CC(=O)O)C(=O)N[C@@H](Cc2c[nH]c3ccccc23)C(=O)O)cc1 [Example 101]
3 = O=C(O)CC(CC(=O)NO)C(=O)NCc1ccc(-c2ccccc2)cc1 (centres unmarked) [Example 150]
Would you mind ranking these compounds by ascending IC50? The response must list the labels following the requested ordering. 1, 2, 3

1 = C[C@H](O)[C@H](S)C(=O)N[C@@H](CC(=O)O)C(=O)N[C@@H](Cc1c[nH]c2ccccc12)C(=O)O [Example 94]
2 = O=C(O)CC(CCC(=O)NO)C(=O)NCCc1ccc(-c2ccccc2)cc1 (centres unmarked) [Example 152]
Endpoint returns whichever of 1 and 2 has the numerically higher IC50. I would appreciate it if you answered with the label of your choice. 2
(2: 1300 nM, 1: 4 nM)

---

The following compounds have recorded IC50 on sPHEX (Homo sapiens, UniProt P78562).
observed_property: IC50 (nM)

Use the examples below as a reference point.
# compound, unit, IC50
rows = [
    ("O=C(O)CC(CC(=O)NO)C(=O)NCCCCCO (stereo not shown)", "nM", 1700),
    ("CC(C)[C@H](S)C(=O)N[C@@H](CC(=O)O)C(=O)N[C@@H](Cc1c[nH]c2ccccc12)C(=O)O", "nM", 5),
]

a = O=C(O)CC(CC(=O)NO)C(=O)NCCCCc1ccccc1 (stereo not shown)
b = O=C(O)C[C@H](NC(=O)[C@@H](S)Cc1ccccc1)C(=O)N[C@@H](Cc1ccc(-c2ccccc2)cc1)C(=O)O
Between a and b , which one shows the smaller IC50 number? Select an item and report its label. b

---

Molecular target: sPHEX (Homo sapiens)
Sequence (P78562 53-749 limits assumed): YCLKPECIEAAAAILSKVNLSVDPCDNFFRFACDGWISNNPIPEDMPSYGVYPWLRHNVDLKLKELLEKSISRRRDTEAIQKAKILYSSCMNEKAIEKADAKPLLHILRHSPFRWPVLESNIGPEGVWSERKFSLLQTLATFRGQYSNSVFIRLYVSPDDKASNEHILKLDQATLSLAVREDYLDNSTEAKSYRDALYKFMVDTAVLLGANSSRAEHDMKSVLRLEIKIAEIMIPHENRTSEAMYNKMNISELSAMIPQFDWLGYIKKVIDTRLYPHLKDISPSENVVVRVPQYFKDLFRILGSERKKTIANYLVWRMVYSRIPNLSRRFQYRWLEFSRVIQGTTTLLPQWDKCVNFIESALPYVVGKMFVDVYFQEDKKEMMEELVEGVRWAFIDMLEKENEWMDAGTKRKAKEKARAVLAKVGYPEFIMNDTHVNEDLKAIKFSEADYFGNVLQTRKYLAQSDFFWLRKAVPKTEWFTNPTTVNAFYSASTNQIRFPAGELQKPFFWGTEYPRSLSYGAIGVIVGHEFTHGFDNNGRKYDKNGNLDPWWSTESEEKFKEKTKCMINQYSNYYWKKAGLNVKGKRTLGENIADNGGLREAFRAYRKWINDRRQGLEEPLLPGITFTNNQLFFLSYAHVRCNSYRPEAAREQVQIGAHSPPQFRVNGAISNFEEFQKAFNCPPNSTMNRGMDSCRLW
pIC50: −log10 of the molar value.
observed_property: pIC50

# molecule, pIC50
measured = [
    ("O=C(O)C[C@H](NC(=O)[C@@H](S)CC1CCCCC1)C(=O)N[C@@H](Cc1c[nH]c2ccccc12)C(=O)O [Example 102]", 7.70),
]

I = O=C(O)C[C@H](NC(=O)[C@@H](S)Cc1c[nH]c2ccccc12)C(=O)N[C@@H](Cc1c[nH]c2ccccc12)C(=O)O [Example 103]
II = O=C(O)C[C@H](NC(=O)[C@@H](S)Cc1ccccc1)C(=O)NCCc1c[nH]c2ccccc12 [Example 118]
III = O=C(O)C[C@H](NC(=O)[C@@H](S)Cc1ccccc1)C(=O)N[C@@H](Cc1ccc2ccccc2c1)C(=O)O [Example 106]
Number of molecules to sort: 3. Sort criterion: pIC50, ascending. Record the ranking as a list of labels in the requested order. II, I, III
